Reference source for all entries: paper PMC8537953

# PROCEDURE_DETAILS: in vitro
# SETTINGS: human

| COMPOUND | viability |
| --- | --- |
| NC12CC3CC(CC(C3)C1)C2 [Amantadine, amantadine] | > 50% |
